Tgt: human Yes1 enzyme (Homo sapiens, UniProt P07947)
Construct: made in house
Sequence (P07947 whole entry): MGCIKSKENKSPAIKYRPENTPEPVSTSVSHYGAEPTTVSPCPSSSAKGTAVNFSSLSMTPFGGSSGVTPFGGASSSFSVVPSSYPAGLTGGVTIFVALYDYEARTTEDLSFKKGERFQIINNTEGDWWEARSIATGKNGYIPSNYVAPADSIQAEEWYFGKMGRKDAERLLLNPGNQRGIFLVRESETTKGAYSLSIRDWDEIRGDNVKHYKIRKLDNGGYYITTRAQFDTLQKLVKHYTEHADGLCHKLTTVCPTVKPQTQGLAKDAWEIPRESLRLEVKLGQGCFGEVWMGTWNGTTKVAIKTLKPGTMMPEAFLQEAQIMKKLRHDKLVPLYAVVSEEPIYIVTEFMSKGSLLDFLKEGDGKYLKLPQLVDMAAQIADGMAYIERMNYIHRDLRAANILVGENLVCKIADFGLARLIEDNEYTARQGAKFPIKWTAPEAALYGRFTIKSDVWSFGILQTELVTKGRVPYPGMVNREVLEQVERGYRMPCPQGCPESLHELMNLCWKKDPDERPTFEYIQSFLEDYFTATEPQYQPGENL
Protocol Notes: Yes1 enzyme inhibitory activity (time-resolved fluorometry, biotinylated peptide phosphorylation)
Type: biochemical
Particulars: read-out: YES_IC50
Measurement Type: IC50 (nM)
One number for each entry, in nM.

The cases that follow already have their IC50 on record.
Compound	IC50 / nM
Cc1cc(Oc2c(F)cccc2F)ncc1-n1ncc(C(=O)c2cc3cc(OC4CCN(C5CS(=O)(=O)C5)CC4)c(-c4cncnc4)cc3[nH]2)c1N [Example 5-1-284]	1.1
Cc1cc(Oc2ccccc2F)ccc1-n1ncc(C(=O)c2cc3cc(OC(F)F)c(Br)cc3[nH]2)c1N [Example 5-1-082]	1.9
Cc1cc2cc(C(=O)c3cnn(-c4cnc(Oc5c(F)cccc5F)cc4C)c3N)[nH]c2cc1N1CC(C)(C)NS1(=O)=O [Example 5-1-313]	2.8
Cc1cc(Oc2c(F)cccc2F)ncc1-n1ncc(C(=O)c2cc3cc(OCC(F)F)c(NS(=O)(=O)c4cc(F)cc(F)c4)cc3[nH]2)c1N [Example 5-1-330]	11
COc1ccc(S(=O)(=O)Nc2cc3[nH]c(C(=O)c4cnn(-c5cnc(Oc6c(F)cccc6F)cc5C)c4N)cc3cc2OCC(F)F)cc1 [Example 5-1-299]	9.7

Hello, I would appreciate it if you could give IC50 for each entry below.
1. Cc1cc2cc(C(=O)c3cnn(-c4cnc(Oc5ccccc5F)cc4C)c3N)[nH]c2cc1C1CCN(S(=O)(=O)C2CC2)CC1 [Example 5-1-123]
2. Cc1cc(Oc2c(F)cccc2F)ncc1-n1ncc(C(=O)c2cc3cc(F)c(N4C(=O)NC5(COC5)C4=O)cc3[nH]2)c1N [Example 5-1-345]

a:
1: 2; 2: 1.6

Hello, I would appreciate it if you could give IC50 for each entry below.
1. Cc1cc(Oc2ccccc2F)ccc1-n1ncc(C(=O)c2cc3cc(N4CCOCC4)c(NC4CCN(S(C)(=O)=O)CC4)cc3[nH]2)c1N [Example 5-1-129]
2. Cc1cc(Oc2ccccc2F)ncc1-n1ncc(C(=O)c2cc3cc(F)c(NS(=O)(=O)NC(C)C)cc3[nH]2)c1N [Example 5-1-021]
3. Cc1cc2cc(C(=O)c3cnn(-c4cnc(Oc5ccccc5)cc4C)c3N)[nH]c2cc1NS(C)(=O)=O [Example 5-1-109]
4. Cc1cc(Oc2ccccc2F)ccc1-n1ncc(C(=O)c2cc3cc(OCC(F)F)c(N4C(=O)NC5(CCN(Cc6ccccc6)CC5)C4=O)cc3[nH]2)c1N [Example 5-1-277]
5. Cc1cc(Oc2ccccc2F)cc(C)c1-n1ncc(C(=O)c2cc3cc(F)c(NS(C)(=O)=O)cc3[nH]2)c1N [Example 5-1-032]
6. Cc1cc(-n2ncc(C(=O)c3cc4cc(OC(F)F)c(Br)cc4[nH]3)c2N)ccc1Oc1ccccc1F [Example 5-1-152]
7. Nc1c(C(=O)c2cc3cc(F)c(NS(=O)(=O)C4CC4)cc3[nH]2)cnn1-c1c(F)cc(Oc2cccc(F)c2F)cc1F [Example 5-1-031]
8. Cc1cc(Oc2ccccc2F)ccc1-n1ncc(C(=O)c2cc3cc(C(C)C)c(N)cc3[nH]2)c1N [Example 5-1-266]

a:
[0.61, 9.8, 0.7, 1.5, 11, 7.3, 4.1, 2.1]

====

Please go through the items and note down their IC50.
Tgt: human Src enzyme (Homo sapiens)
Construct: purchased Carna Biosciences, Inc. 08-173
Protocol Notes: Src enzyme inhibitory activity (time-resolved fluorometry, biotinylated peptide phosphorylation)
Format: biochemical
Particulars: biotinylated peptide phosphorylation, read-out: SRC_IC50
One number for each entry, in nM.

The cases that follow already have their IC50 on record.
In [3]: df
Out[3]:
                                   molecule  reading
0  Cc1cc(Oc2c(F)cccc2F)ncc1-n1ncc(C(=O)c2cc3cc(OC(F)F)c(C4CCN(S(C)(=O)=O)CC4)cc3[nH]2)c1N [Example 4-17-012]       45
1  Cc1cc2cc(C(=O)c3cnn(-c4cnc(Oc5cccc(F)c5F)cc4C)c3N)[nH]c2cc1NS(C)(=O)=O [Example 4-2-062]      130

Hello, I would appreciate it if you could give IC50 for each entry below.
1. CC(C)N1CCC(c2cc3cc(C(=O)c4cnn(-c5ccc(Oc6ccccc6Cl)cc5F)c4N)[nH]c3cc2F)CC1 [Example 4-2-008]
2. Cc1cc(Oc2c(F)cccc2F)ncc1-n1ncc(C(=O)c2cc3cc(F)c(NS(=O)(=O)c4cccc(Cl)n4)cc3[nH]2)c1N [Example 5-1-528]
3. Cc1cc2cc(C(=O)c3cnn(-c4cnc(Oc5c(F)cccc5F)cc4C)c3N)[nH]c2cc1NS(=O)(=O)c1cc(F)cc(F)c1 [Example 5-1-561]
4. Cc1cc(Oc2c(F)cccc2F)ncc1-n1ncc(C(=O)c2cc3cc(F)c(N4CC5(CCOCC5)NS4(=O)=O)cc3[nH]2)c1N [Example 5-1-400]
5. Cc1cc(Oc2ccccc2F)ncc1-n1ncc(C(=O)c2cc3cc(NS(C)(=O)=O)c(Cl)cc3[nH]2)c1N [Example 4-2-096]

a:
1: 5.4; 2: 750; 3: 940; 4: 76; 5: 9.5

Hello, I would appreciate it if you could give IC50 for each entry below.
1. COc1ccnc(S(=O)(=O)Nc2cc3[nH]c(C(=O)c4cnn(-c5cnc(Oc6c(F)cccc6F)cc5C)c4N)cc3cc2F)c1 [Example 5-1-513]
2. Cc1cc(Oc2ccccc2F)ccc1-n1ncc(C(=O)c2cc3cc(F)c(NS(=O)(=O)c4cccc(C#N)n4)cc3[nH]2)c1N [Example 5-1-537]
3. Cc1cc(Oc2ccccc2F)cc(F)c1-n1ncc(C(=O)c2cc3cc(OCC(F)F)c(NS(=O)(=O)CCCF)cc3[nH]2)c1N [Example 4-24-026]
4. Cc1cc(Oc2ccccc2F)ncc1-n1ncc(C(=O)c2cc3cc(OC(F)F)c(NS(=O)(=O)CCCF)cc3[nH]2)c1N [Example 4-24-009]
5. Cc1cc(Oc2cccc(F)c2F)ccc1-n1ncc(C(=O)c2cc3cc(F)c(NS(=O)(=O)CCCF)cc3[nH]2)c1N [Example 4-2-016]
6. Cc1cc(Oc2cccc(F)c2)ncc1-n1ncc(C(=O)c2cc3cc(F)c(NS(=O)(=O)C4CC4)cc3[nH]2)c1N [Example 4-2-048]
7. COc1cc2cc(C(=O)c3cnn(-c4cnc(Oc5cccc(Cl)c5)cc4C)c3N)[nH]c2cc1NS(C)(=O)=O [Example 4-1-011]

a:
[510, 320, 50, 120, 70, 290, 170]

====

Tgt: human Lck enzyme (Homo sapiens, UniProt P06239)
Construct: purchased Carna Biosciences, Inc. 08-170
Sequence (P06239 whole entry): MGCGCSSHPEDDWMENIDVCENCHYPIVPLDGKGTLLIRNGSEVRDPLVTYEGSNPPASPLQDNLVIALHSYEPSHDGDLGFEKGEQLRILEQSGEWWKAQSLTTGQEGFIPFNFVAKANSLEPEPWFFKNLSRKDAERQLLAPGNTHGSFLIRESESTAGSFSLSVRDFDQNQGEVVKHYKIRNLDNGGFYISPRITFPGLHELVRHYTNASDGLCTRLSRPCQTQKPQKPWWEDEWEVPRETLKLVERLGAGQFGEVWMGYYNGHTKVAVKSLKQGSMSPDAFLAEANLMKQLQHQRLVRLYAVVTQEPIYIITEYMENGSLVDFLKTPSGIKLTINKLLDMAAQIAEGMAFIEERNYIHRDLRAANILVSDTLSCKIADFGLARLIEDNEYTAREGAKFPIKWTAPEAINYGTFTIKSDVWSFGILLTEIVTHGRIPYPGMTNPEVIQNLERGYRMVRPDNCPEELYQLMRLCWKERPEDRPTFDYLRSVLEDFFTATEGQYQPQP
Protocol Notes: Lck enzyme inhibitory activity (time-resolved fluorometry, biotinylated peptide phosphorylation)
Assay type: biochemical
Particulars: biotinylated peptide phosphorylation, read-out: LCK_IC50
Measurement Type: pIC50
Answers are plain numbers, as −log10 of the molar value.

Hello, I would appreciate it if you could give pIC50 for each entry below.
1. Cc1cc(Oc2ccccc2Cl)ncc1-n1ncc(C(=O)c2cc3cc(F)c(NS(=O)(=O)CCCF)cc3[nH]2)c1N
2. Cc1cc(Oc2ccccc2F)ccc1-n1ncc(C(=O)c2cc3cc(F)c(N4C(=O)[C@@H]5C[C@@H](O)CN5C4=O)cc3[nH]2)c1N

a:
[7.33, 8.48]

====

Tgt: human Src enzyme (Homo sapiens, UniProt P12931)
Construct: purchased Carna Biosciences, Inc. 08-173
Sequence (P12931 whole entry): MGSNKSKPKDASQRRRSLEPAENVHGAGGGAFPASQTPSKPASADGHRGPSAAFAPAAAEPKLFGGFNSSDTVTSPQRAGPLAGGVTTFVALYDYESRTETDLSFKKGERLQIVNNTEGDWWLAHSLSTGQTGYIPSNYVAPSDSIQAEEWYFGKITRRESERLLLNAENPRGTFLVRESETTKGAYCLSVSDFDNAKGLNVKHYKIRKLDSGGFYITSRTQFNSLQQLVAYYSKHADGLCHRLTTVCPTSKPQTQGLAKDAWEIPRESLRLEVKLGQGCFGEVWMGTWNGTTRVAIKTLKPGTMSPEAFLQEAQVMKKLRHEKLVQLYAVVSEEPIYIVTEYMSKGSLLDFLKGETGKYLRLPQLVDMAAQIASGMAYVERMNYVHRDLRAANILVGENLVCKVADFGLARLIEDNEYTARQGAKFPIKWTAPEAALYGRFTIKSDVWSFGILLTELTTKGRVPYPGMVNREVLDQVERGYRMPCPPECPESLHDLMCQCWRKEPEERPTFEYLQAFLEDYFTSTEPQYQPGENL
Protocol Notes: Src enzyme inhibitory activity (time-resolved fluorometry, biotinylated peptide phosphorylation)
Assay type: biochemical
Particulars: biotinylated peptide phosphorylation, read-out: SRC_IC50
Please go through the items and note down their IC50.
Numbers only, in nM.

>>> print(df.to_string())
                                smiles_data  value_units  reading
0  COc1cc2cc(C(=O)c3cnn(-c4cnc(Oc5ccccc5F)cc4C)c3N)[nH]c2cc1NC(=O)N1CCOCC1           nM       40
1  Cc1cc(Oc2ccc(F)cc2)ncc1-n1ncc(C(=O)c2cc3cc(F)c(NS(=O)(=O)CCCF)cc3[nH]2)c1N           nM       95
2  Cc1cc(Oc2ccccc2F)ccc1-n1ncc(C(=O)c2cc3cc(F)c(NS(=O)(=O)c4c(F)cc(F)cc4F)cc3[nH]2)c1N           nM      810
3  COc1cc2cc(C(=O)c3cnn(-c4c(C)cc(Oc5ccccc5F)cc4F)c3N)[nH]c2cc1N1CCCS1(=O)=O           nM       28
4  Cc1cc2cc(C(=O)c3cnn(-c4cnc(Oc5c(F)cccc5F)cc4C)c3N)[nH]c2cc1NS(=O)(=O)c1cccc(C#N)c1           nM     1200

Hello, I would appreciate it if you could give IC50 for each entry below.
1. Cc1cc(Oc2c(F)cccc2F)ncc1-n1ncc(C(=O)c2cc3cc(F)c(N4C(=O)N[C@@H](C(C)C)C4=O)cc3[nH]2)c1N
2. CS(=O)(=O)Nc1cc2[nH]c(C(=O)c3cnn(-c4ccc(Oc5ccccn5)cc4Cl)c3N)cc2cc1F
3. Cc1cc(Oc2ccccc2F)ccc1-n1ncc(C(=O)c2cc3cc(OC(F)F)c(NC4COC4)cc3[nH]2)c1N
4. Cc1cc(Oc2ccccc2F)ccc1-n1ncc(C(=O)c2cc3cc(F)c(NS(=O)(=O)NCC(C)(C)O)cc3[nH]2)c1N

a:
1. 190
2. 55
3. 22
4. 41

Hello, I would appreciate it if you could give IC50 for each entry below.
1. Cc1cc(Oc2c(F)cccc2F)ncc1-n1ncc(C(=O)c2cc3cc(F)c(NS(=O)(=O)c4cccnc4)cc3[nH]2)c1N
2. Cc1cc(Oc2ccccc2Cl)ncc1-n1ncc(C(=O)c2cc3cc(F)c(NS(C)(=O)=O)cc3[nH]2)c1N
3. Cc1cc(Oc2ccccc2F)ncc1-n1ncc(C(=O)c2cc3cc(F)c(NS(=O)(=O)c4cccc(C#N)c4)cc3[nH]2)c1N
4. Cc1cc2cc(C(=O)c3cnn(-c4cnc(Oc5ccccc5Cl)cc4C)c3N)[nH]c2cc1NS(=O)(=O)CCCF

a:
[400, 49, 1000, 71]
